molecules and their reported growth
Test system: HCT-116 colon
Procedure Text: NCI-60 one-dose screen, 48 h (100 = growth as untreated, 0 = no growth, -100 = all killed)
Condition Info: 10 µM unless noted
Compounds without any hit were thinned out: in the full panel of roughly 83,000, 20% have a hit.

Molecule Smiles | growth, %
COc1ccc(Cn2cc3c(c2-c2cc(OC)c(OC)c(OC)c2)CCc2cnoc2-3)cc1 | 13
CCCCN(CCCC)C(=N)c1ccnc2ccccc12 | 104
O=[N+]([O-])c1ccc(OCCCOc2ccccc2)cc1 | 97.4

====

Recorded growth by entry
Tested on: NCI-H322M lung
Procedure Text: NCI-60 one-dose screen, 48 h (100 = growth as untreated, 0 = no growth, -100 = all killed)
Condition Info: 10 µM unless noted
This is part of a sample that, as a whole, favours compounds with a hit. Of some 83,000 tested, about 20% had one in any assay.

Compound | Display Unit | growth
CCCCCc1cc[n+](CC(=O)c2ccc([N+](=O)[O-])cc2)cc1 | % | 107
C=C1CCC2C3(C)COC(c4ccccc4)OC3CCC2(C)C1/C=C/C1=CCOC1=O (stereo not drawn) | % | 64.3
CC(C)(C)c1[nH]nc2c1C(c1cc3ccccc3[nH]c1=O)Nc1cc(C(=O)Nc3ccc(Cl)cc3)ccc1N2 (stereo not drawn) | % | 78.6

====

Tested on: T-47D breast
Procedure Text: NCI-60 one-dose screen, 48 h (100 = growth as untreated, 0 = no growth, -100 = all killed)
Condition Info: 10 µM unless noted
Method: Growth inhibition of the T-47D human tumor cell line is measured as a screen for anti-cancer activity. Cells are grown in 96 well plates and exposed to the test compound for 48 hours. Compounds are tested at a single concentration, which is 10^-5 M for most compounds. The reported endpoint is percent growth (GI% or GIPRCNT), where numbers from 0 - 100% represent growth inhibition, and numbers from -100% - 0 represent cell death. For example, a value of 40 represents 60% growth inhibition. […]
About 83,000 compounds went through this panel and 20% of them were active in at least one assay; those are over-represented in the sample as a whole.
# note: exactly 20% is not below, so it is criterion not met; use criterion met for growth strictly under it

Compound | System | Answer Label
COC(=O)c1cc(=O)nc(N/N=C/c2ccco2)s1 | T-47D breast | criterion not met
CCCCCCCCCCCCCCCCCCNC(=O)[C@H]1CSC(c2ccc(OC)cc2O)N1 (stereo not given in full) | T-47D breast | criterion not met
CC12CCCC(CC(=O)c3[nH]c4ccccc4c31)C2 (stereo not given) | T-47D breast | criterion not met
Clc1cc2c(nn1)Nc1ccccc1S2 | T-47D breast | criterion not met
O=C(NCCNc1nccc(-n2ccc3cccnc32)n1)c1ccc(C(F)(F)F)cc1 | T-47D breast | criterion not met
COc1cc2c(=O)n(C3CCCCCC3)c3c4cc[nH]c4ncc3c2cc1OC | T-47D breast | criterion not met
COc1ccc(-c2[nH]nc(N)c2-c2cc(OC)c3c(c2)OCO3)cc1 | T-47D breast | criterion not met
O=[N+]([O-])c1cccc(-c2nc3sccn3c2-c2ccnc(NCCCNS(=O)(=O)c3ccc(C(F)(F)F)cc3)n2)c1 | T-47D breast | criterion met
O=c1ccn(C2CC(O)C(O)C(CO)O2)c(=O)[nH]1 (stereo not given) | T-47D breast | criterion not met
C/C=C(\C)C(C(=O)NC1CCCCC1)N(C(=O)C1CCc2cc(F)ccc2O1)c1ccc(Cl)cc1 (stereo not given) | T-47D breast | criterion not met
NC(N)=Nc1nc2ccccc2o1 | T-47D breast | criterion not met
Cc1ccc(S(=O)(=O)NCCNc2nccc(-c3c(-c4ccc(O)cc4)nc4sccn34)n2)cc1 | T-47D breast | criterion not met
CC(=O)OC[C@]12CC[C@H]3[C@@H](C[C@H]4O[C@]45CC=CC(=O)[C@]35C)[C@]1(O)CC[C@@]2(O)[C@@](C)(O)C1CC(C)=C(C)C(=O)O1 (stereo not given in full) | T-47D breast | criterion met
COc1cc(NC(N)=NCCC(C)(C)c2ccc(C(F)(F)F)cc2)ncc1C#N | T-47D breast | criterion met
CC(C)(C)n1cc(-c2ccnc(NCCCNS(=O)(=O)c3ccccc3)c2)c(-c2cccc(O)c2)n1 | T-47D breast | criterion not met
CCN1C(=O)N(CC)C2C1NN=c1s/c(=C\c3cccnc3)c(=O)n12 (stereo not given) | T-47D breast | criterion not met
Fc1ccc(-c2nc(-c3nc4ncccc4[nH]3)cc3c2[nH]c2ccccc23)cc1F | T-47D breast | criterion not met
COc1cc(/C=N\NC(=O)CN2CCN(c3cc4c(cc3F)c(=O)c(C(=O)N/N=C/c3cc(OC)c(OC)c(OC)c3)cn4C3CC3)CC2)cc(OC)c1OC | T-47D breast | criterion met
Cc1c(C(=O)/C=C/c2csc3ccccc23)[n+](=O)c2ccccc2n1[O-] | T-47D breast | criterion not met
C=C1c2nc3ccccc3n2C=C(c2ccc(Cl)cc2)N1Cc1ccccc1 | T-47D breast | criterion not met

====

Test system: CCRF-CEM leukemia
Procedure Text: NCI-60 one-dose screen, 48 h (100 = growth as untreated, 0 = no growth, -100 = all killed)
Condition Info: 10 µM unless noted
About 83,000 compounds went through this panel and 20% of them were active in at least one assay; those are over-represented in the sample as a whole.

Molecule | System | Display Unit | growth
O=C(c1ccccc1)c1c(/C=C/c2ccccc2)c2ccccc2[nH]c1=O | CCRF-CEM leukemia | % | 87.6
O=C1CCCCC1(c1ccccc1)c1ccccc1 | CCRF-CEM leukemia | % | 101
C=C1CCC2C(C)(CO)C(O)CCC2(C)C1C/C=C1/C(=O)OCC1Oc1ccccc1C (stereo not given) | CCRF-CEM leukemia | % | 20.3
CN(C)CCOC(=O)Nc1ccccc1Cl | CCRF-CEM leukemia | % | 93.4
COc1ccc(-n2c(-c3ccccc3)c(-c3ccccc3)c3c(SCC(=O)N/N=C/c4ccc(Cl)cc4)ncnc32)cc1 | CCRF-CEM leukemia | % | 93.4
COc1cc(/C=C/C(=O)N2CCN(C(=O)/C=C/c3cc(OC)c(OC)c(OC)c3)CC2)cc(OC)c1OC | CCRF-CEM leukemia | % | 98.6
COC(=O)c1nc(-c2ccccc2)oc1S(=O)(=O)N1CCN(c2cccc(Cl)c2)CC1 | CCRF-CEM leukemia | % | 4.91
CC(C)C1=CC2=C(C=O)C[C@@H]3[C@](C)(CCC[C@@]3(C)C(=O)OCC#CCN3CCCC3)[C@H]2CC1 | CCRF-CEM leukemia | % | 63.9
CC(C)c1ccc2occ(C=C3C(=O)NC(=O)NC3=O)c(=O)c2c1 | CCRF-CEM leukemia | % | 77.8
COc1ccc(CNCCCN2C(=O)c3ccc4c5c(ccc(c35)C2=O)C(=O)N(CCCNCCCCNCCCN)C4=O)c(OC)c1OC | CCRF-CEM leukemia | % | 16.5

====

Test system: T-47D breast
Procedure Text: NCI-60 one-dose screen, 48 h (100 = growth as untreated, 0 = no growth, -100 = all killed)
Condition Info: 10 µM unless noted
This is part of a sample that, as a whole, favours compounds with a hit. Of some 83,000 tested, about 20% had one in any assay.
Reported growth values for the following compounds.
Quantity Kind: growth (%)

Molecule Smiles | Quantity Kind | Experimental Result
COc1ccc(Nc2nn3c(C)cc(C)nc3c2C(=O)Nc2ccc(C)cc2)c(OC)c1 | growth | 87.7
CC(=O)Oc1csc(N(C(C)=O)c2cccc(C(F)(F)F)c2)n1 | growth | 87.7
COc1ccc(OC)c(/C=C2\Oc3cc(OCCCN4CCCC4)ccc3C2=O)c1 | growth | 92.6
COc1ccc(N=Cc2c(O)ccc3c2oc2cc(Cl)c(O)c(Cl)c23)cc1 | growth | 87.9

====

Tested on: OVCAR-5 ovarian
Procedure Text: NCI-60 one-dose screen, 48 h (100 = growth as untreated, 0 = no growth, -100 = all killed)
Condition Info: 10 µM unless noted
This is part of a sample that, as a whole, favours compounds with a hit. Of some 83,000 tested, about 20% had one in any assay.
Quantity Kind: growth (%)

Compound | Quantity Kind | Experimental Result
COc1ccc(-c2cc3c(OC)c(OC)c(OC)cc3oc2=O)cc1 | growth | 74
CC(C)(C)n1cc(-c2ccnc(NCCCNS(=O)(=O)c3ccc(F)cc3)c2)c(-c2cccc(O)c2)n1 | growth | 65
COc1cc(C2NN=C3c4ccccc4CCC32)cc(OC)c1OC (stereo not drawn) | growth | 95.8

====

Test system: HS 578T breast
Procedure Text: NCI-60 one-dose screen, 48 h (100 = growth as untreated, 0 = no growth, -100 = all killed)
Condition Info: 10 µM unless noted
This is part of a sample that, as a whole, favours compounds with a hit. Of some 83,000 tested, about 20% had one in any assay.
Binary label based on growth with cut-off 80%: below gives True, not below gives False.

Compound | Answer Label
Nc1nc(Nc2cc(Cl)cc(Cl)c2)nn1S(=O)(=O)c1ccc2ccccc2c1 | True
CCN(CC)c1ccc(/C=C2\Oc3ccc(O)c(I)c3C2=O)cc1 | True
COC(=O)[C@]12CC[C@@H](C)[C@H](C)[C@@H]1C1=CC[C@@H]3[C@@]4(C)C(C=O)=C[C@@](C)(COC(=O)c5ccco5)[C@@H]4[C@H](O)C[C@@]3(C)[C@]1(C)CC2 | True
CCCCCCN1CSC(=S)N(CCCCCC)C1 | False
Cc1cc(C)n(-c2nnc3n2N=C(c2ccc(-c4ccccc4)cc2)CS3)n1 | True
CCCCCCCCCCCCNC(=O)[C@H]1CSC(c2cc(Br)cs2)N1 (some centres not stated) | True
CNc1ccc(Br)c2c1C(=O)c1ccccc1C2=O | False
Fc1ccc(CNCCNc2ncnc3c2cnn3-c2ccccc2)cc1 | False
O=C1C(Cl)=C(Nc2ccccn2)C(=O)c2ccccc21 | True
COc1ccc(-c2c(N)n[nH]c2-c2cc3c(c(OC)c2OC)OCO3)cc1 | False
N=c1ccc2nc3ccc(N)cc3sc-2c1 | True
Nc1ccc(C(=O)CSc2nc3ccccc3[nH]2)cc1 | False
